# credit: patent US6506766B1

# tested-target: human progesterone receptor-A [PRA] isoform (Homo sapiens)
# Construct: host or cells: insect SF21 cells (baculovirus)
# Sequence (P06401 165-933): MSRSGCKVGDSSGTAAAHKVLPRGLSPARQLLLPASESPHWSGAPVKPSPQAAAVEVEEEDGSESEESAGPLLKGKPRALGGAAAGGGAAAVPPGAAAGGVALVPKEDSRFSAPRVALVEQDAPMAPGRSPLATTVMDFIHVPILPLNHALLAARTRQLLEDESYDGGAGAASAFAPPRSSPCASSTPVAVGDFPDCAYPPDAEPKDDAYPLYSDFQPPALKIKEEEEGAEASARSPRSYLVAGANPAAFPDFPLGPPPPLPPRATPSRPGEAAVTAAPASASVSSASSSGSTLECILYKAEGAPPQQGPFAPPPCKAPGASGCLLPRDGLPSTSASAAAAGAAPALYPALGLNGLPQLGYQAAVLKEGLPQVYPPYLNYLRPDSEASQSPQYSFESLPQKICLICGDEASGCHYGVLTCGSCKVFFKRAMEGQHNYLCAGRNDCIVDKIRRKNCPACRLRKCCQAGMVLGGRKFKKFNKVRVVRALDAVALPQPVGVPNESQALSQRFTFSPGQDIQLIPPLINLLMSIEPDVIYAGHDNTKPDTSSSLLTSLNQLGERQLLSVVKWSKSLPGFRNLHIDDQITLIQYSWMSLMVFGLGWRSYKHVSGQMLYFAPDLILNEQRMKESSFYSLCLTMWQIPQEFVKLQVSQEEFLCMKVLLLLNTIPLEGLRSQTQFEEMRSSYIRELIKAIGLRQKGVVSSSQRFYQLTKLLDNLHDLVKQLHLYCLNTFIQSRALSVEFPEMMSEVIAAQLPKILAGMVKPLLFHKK
# test-protocol: Radioligand binding with human progesterone receptor cytosol ([3H]-progesterone competition)
# protocol-conditions: PRA cytosol expressed in insect SF21 cells, [3H]Prog ~0.8 nM, 4° C. overnight; Ki by Cheng-Prusoff, KL ~4.5 nM; read-out: Ki (nM) PR
Can you tell me Ki for the items I'm about to list?

Provide only the value of recorded Ki for C=CCC1Oc2cccc(C=C)c2-c2ccc3c(c21)C(C)=CC(C)(C)N3 (stereo not shown) [Example 5]
≥ 10000 nM

Provide only the value of recorded Ki for COc1cccc2c1-c1ccc3c(c1C(CCCN1C(=O)c4ccccc4C1=O)O2)C(C)=CC(C)(C)N3 (stereo not shown) [Example 176]
> 10000 nM

Provide only the value of recorded Ki for COc1cccc2c1-c1ccc3c(c1C(c1cc(C)cc(N4CCOCC4)c1)O2)C(C)=CC(C)(C)N3 (stereo not shown) [Example 17]
≥ 10000 nM

Provide only the value of recorded Ki for COCC1=CC(C2Oc3cccc(OC)c3-c3ccc4c(c32)C(C)=CC(C)(C)N4)CCC1 (stereo not shown) [Example 160]
≥ 10000 nM
